# experimental.details: Metabolic stability in rat liver microsomes
# Type: ADME, Microsome
# condition.label: read-out: Stability
quantity: microsomal CLint (µL/min/mg)
Answer with a number only, understood to be in µL/min/mg.

// solved cases for microsomal CLint follow
>>> obs_value("CN1C[C@@H]2CN(C(=O)c3cc4cc(Cl)ccc4[nH]3)C[C@@H]2C1")
36
>>> obs_value("CN1CCN(C(=O)c2cc3cc(Cl)ccc3[nH]2)CC1 [JNJ-7777120]")
61
>>> obs_value("CNC1CN(c2cc(NCCC(C)(C)C)nc(N)n2)C1")
33

**Q:** Tell me the measured microsomal CLint of CN1C[C@@H]2CN(C(=N)c3nc4cc(F)c(F)cc4[nH]3)C[C@@H]2C1 , please.
**A:** 10

**Q:** Could you tell me which microsomal CLint is on file for CN1C[C@@H]2CN(C(=O)c3nc4cc(F)c(F)cc4[nH]3)C[C@@H]2C1 ?
**A:** 10

**Q:** Recorded microsomal CLint of CN1C[C@@H]2CN(C(=O)c3nc4cc(F)ccc4[nH]3)C[C@@H]2C1 , please.
**A:** 40
